# protocol_notes: Visceral sensitivity: abdominal contractures produced by rectal distension after acetic acid irritation
# Assay type: in vivo
# details: rat, 0.3 mg/kg p.o., 10 min distension, mean of five rats; placebo 23.8 ± 1.6; * p < 0.05 vs placebo
Threshold-based label: No. of contractures ± standard deviation under 9 gives 1, No. of contractures ± standard deviation not under 9 gives -1.

See these solved cases before continuing.
{"compound": "CC1CCN(C[C@H]2CCCC[C@H]2NC(=O)c2cc(Cl)c(N)cc2OC(C)C)CC1 (relative stereo) [Compound 7]", "class_name": 1}
{"compound": "COc1cc(N)c(Cl)cc1C(=O)N[C@@H]1CCCC[C@@H]1CN1CCC(C)(C)CC1 (relative stereo) [Compound 4]", "class_name": -1}
{"compound": "COc1cc(N)c(Cl)cc1C(=O)N[C@@H]1CCCC[C@@H]1CN1CCC(CO)CC1 (relative stereo) [Compound 3]", "class_name": -1}
{"compound": "CC1CCN(C[C@H]2CCCC[C@@H]2NC(=O)c2cc(Cl)c(N)cc2OCC2CC2)CC1 [Compound 9]", "class_name": 1}
{"compound": "COc1cc(N)c(Cl)cc1C(=O)N[C@@H]1CCCC[C@@H]1CN1CCC(C)CC1 [Compound 1]", "class_name": 1}

Query :: Please state whether No. of contractures ± standard deviation is below 9 for COc1cc(N)c(Cl)cc1C(=O)N[C@@H]1CCCC[C@@H]1CN1CCC(C(C)(C)C)CC1 (relative stereo) [Compound 5]
Result :: -1

Query :: Problem: For the compound CC1CCN(C[C@H]2CCCC[C@H]2NC(=O)c2cc(Cl)c(N)cc2OCC2CC2)CC1 [Compound 6] , is No. of contractures ± standard deviation under 9?
Result :: 1
